system: isolated human erythrocytes; experiment: cells; type: cell-based; details: Homo sapiens, Erythrocyte, 1 h, read-out: Hemolysis EC50
Value kind: EC50

Given the entry COc1ccc(NC(=O)[C@H](CCCCN)NC(=O)c2cc(NC(=O)[C@H](CCCCN)NC(=O)c3cc(NC(=O)[C@H](CCCCN)NC(=O)c4cc(NC(=O)[C@H](CCCCN)NC(=O)c5ccccc5)ccc4OC)ccc3OC)ccc2OCC(=O)O)cc1C(N)=O , what EC50 was observed with isolated human erythrocytes? > 1000 µg/mL

Given the entry COc1ccc(NC(=O)[C@H](CCCCN)NC(=O)c2cc(NC(=O)[C@H](CCCCN)NC(=O)c3cc(NC(=O)[C@H](CCCCN)NC(=O)c4cc(NC(=O)[C@H](CCCCN)NC(=O)c5ccccc5)ccc4OC)ccc3OC)ccc2OC)cc1C(N)=O , what EC50 was observed with isolated human erythrocytes? > 1000 µg/mL

Given the entry COc1cc(OC)c(C(=O)Nc2ccc(NC(=O)c3cc(C(=O)NCCN(C)C)c(OCCCCCN)cc3OCCCCCN)cc2)cc1C(=O)Nc1ccc(NC(=O)c2cc(C(=O)NCCN(C)C)c(OCCCCCN)cc2OCCCCCN)cc1 , what EC50 was observed with isolated human erythrocytes? > 1000 µg/mL

---

Assignment: determine reported UFH (aPTT) EC50 for the given molecules.
tested on: unfractionated heparin (UFH); assay: aPTT clotting assay, UFH 0.2 U/mL in plasma (Example 7); assay type: biochemical; details: UFH 0.2 U/mL in plasma
Write the answer as a number in µg/mL, unit excluded.

Which UFH (aPTT) EC50 value is on record for [2H]C([2H])(CN)C([2H])([2H])C[C@H](N)C(=O)Nc1ccc(OC)c(C(=O)N[C@@H](CCCCN)C(=O)Nc2ccc(OC)c(C(=O)N[C@@H](CCCCN)C(=O)Nc3ccc(OC)c(C(=O)N[C@@H](CCCCN)C(=O)Nc4ccc(OC)c(C(N)=O)c4)c3)c2)c1 [Compound 121] ? 7.48

Which UFH (aPTT) EC50 value is on record for COc1ccc(NC(=O)[C@H](CCCCCN)NC(=O)c2cc(NC(=O)[C@H](CCCCCN)NC(=O)c3cc(NC(=O)[C@H](CCCCCN)NC(=O)c4cc(NC(=O)[C@@H](N)CCCCCN)ccc4OC)ccc3OC)ccc2OC)cc1C(N)=O [Compound 98] ? 3.14

Which UFH (aPTT) EC50 value is on record for COc1ccc(NC(=O)[C@@H](CCCNC(=N)N)NC(=O)c2cc(NC(=O)[C@@H](CCCNC(=N)N)NC(=O)c3cc(NC(=O)[C@@H](CCCNC(=N)N)NC(=O)c4cc(NC(=O)[C@H](N)CCCNC(=N)N)ccc4OC)ccc3OC)ccc2OC)cc1C(=O)NCCCCCN [Compound 41] ? 1.65

Which UFH (aPTT) EC50 value is on record for COc1ccc(NC(=O)[C@H](CCCNC(=N)N)NC(=O)c2cc(NC(=O)[C@H](CCCNC(=N)N)NC(=O)c3cc(NC(=O)[C@H](C)NC(=O)CCCCNC(=N)N)ccc3OC)ccc2OC)cc1C(N)=O [Compound 120] ? 9.62

Which UFH (aPTT) EC50 value is on record for COc1ccc(NC(=O)[C@H](CCCCN)NC(=O)c2cc(NC(=O)[C@H](C)NC(=O)c3cc(NC(=O)[C@H](CCCCN)NC(=O)c4cc(NC(=O)[C@@H](N)CCCCN)ccc4OC)ccc3OC)ccc2OC)cc1C(N)=O [Compound 76] ? 6.00

Which UFH (aPTT) EC50 value is on record for COc1ccc(NC(=O)[C@@H](CCCNC(=N)N)NC(=O)CCCCNC(=N)N)cc1C(=O)N[C@H](CCCNC(=N)N)C(=O)Nc1ccc(OC)c(C(=O)N[C@H](CCCNC(=N)N)C(=O)Nc2ccc(OC)c(C(=O)N[C@H](CCCNC(=N)N)C(=O)Nc3ccc(OCCNC(=N)N)c(C(N)=O)c3)c2)c1 [Compound 27] ? 2.19

Which UFH (aPTT) EC50 value is on record for COc1ccc(NC(=O)[C@@H](C)NC(=O)CCCCNC(=N)N)cc1C(=O)N[C@H](CCCNC(=N)N)C(=O)Nc1ccc(OC)c(C(=O)N[C@H](CCCNC(=N)N)C(=O)Nc2ccc(OC)c(C(=O)N[C@H](CCCNC(=N)N)C(=O)Nc3ccc(OCCNC(=N)N)c(C(N)=O)c3)c2)c1 [Compound 44] ? 2.38

---

assay: Cytotoxicity colorimetric assay, HepG2; assay type: cell-based, human; conditions: human, HepG2 cells, one hour in serum-free media
Value kind: EC50 at 1 h (µg/mL)
Write the answer as a number in µg/mL, unit excluded.

Which EC50 at 1 h value is on record for COc1cc(OC)c(C(=O)N[C@H]2CC[C@H](NC(=O)c3cc(C(=O)N[C@H]4CC[C@H](NC(=O)c5cc(C(=O)NCCN)c(OC)cc5OC)CC4)ncn3)CC2)cc1C(=O)NCCN ? 864

Which EC50 at 1 h value is on record for COc1cc(OC)c(C(=O)N[C@H]2CC[C@H](NC(=O)c3cc(C(=O)N[C@H]4CC[C@H](NC(=O)c5cc(C(=O)NCCCN)c(OC)cc5OC)CC4)c(OC)cc3OC)CC2)cc1C(=O)NCCCN ? 209

Which EC50 at 1 h value is on record for COC(=O)c1cccc(C(=O)N[C@@H](CCCCN)C(=O)Nc2ccc(OC)c(C(=O)N[C@@H](CCCCN)C(=O)Nc3ccc(OC)c(C(=O)N[C@@H](CCCCN)C(=O)Nc4ccc(OC)c(C(=O)N[C@@H](CCCCN)C(=O)Nc5ccc(OC)c(C(N)=O)c5)c4)c3)c2)c1 ? 1000

Which EC50 at 1 h value is on record for COc1ccc(NC(=O)[C@H](CCCCN)NC(=O)c2cc(NC(=O)[C@H](CCCCN)NC(=O)c3cc(NC(=O)[C@H](CCCCN)NC(=O)c4cc(NC(=O)[C@H](CCCCN)NC(=O)c5c[nH]c6ccccc56)ccc4OC)ccc3OC)ccc2OCC(=O)O)cc1C(N)=O ? 425

---

system: unfractionated heparin (UFH); assay: aPTT clotting assay, UFH 0.2 U/mL in plasma (Example 7); type: biochemical; settings: UFH 0.2 U/mL in plasma
Value kind: UFH (aPTT) EC50

Which UFH (aPTT) EC50 value is on record for COc1ccc(NC(=O)[C@H](CCCCN)NC(=O)c2cc(NC(=O)[C@H](CCCCN)NC(=O)c3cc(NC(=O)[C@H](CCCCN)NC(=O)c4cccc(N(C)C(=O)[C@@H](N)CCCCN)c4)ccc3OC)ccc2OC)cc1C(N)=O [Compound 127] ? 2.33 µg/mL

Which UFH (aPTT) EC50 value is on record for COc1ccc(NC(=O)[C@H](CCCCN)NC(=O)c2cc(NC(=O)[C@@H](N)CCCCN)ccc2OC)cc1C(=O)N[C@@H](CCCCN)C(=O)Nc1ccc(OC)c(C(=O)N[C@@H](CCCCN)C(=O)Nc2ccc(OC)c(C(=O)N[C@H](Cc3ccccc3)C(=O)O)c2)c1 [Compound 111] ? 2.54 µg/mL

Which UFH (aPTT) EC50 value is on record for COc1ccc(NC(=O)[C@H](CCCCN)NC(=O)c2cc(NC(=O)[C@H](CCCCN)NC(=O)c3cc(NC(=O)[C@H](CCCCN)NC(=O)c4cc(NC(=O)[C@@H](N)CCCNC(=N)N)ccc4OC)ccc3OC)ccc2OC)cc1C(N)=O [Compound 81] ? 1.97 µg/mL

Which UFH (aPTT) EC50 value is on record for N=C(N)NCCCCC(=O)Nc1cc(C(F)(F)F)cc(NC(=O)c2ccc(C(=O)Nc3cc(C(F)(F)F)cc(NC(=O)CCCCNC(=N)N)c3SCCN)cc2)c1SCCN [Compound 87] ? >10 µg/mL

---

Assignment: determine reported EC50 at 1 h for the given molecules.
test: Cytotoxicity colorimetric assay, HepG2; format: cell-based, human; conditions: human, HepG2 cells, one hour in serum-free media
Entry format: amount then unit.

Which EC50 at 1 h value is on record for COc1cc(OC)c(C(=O)N[C@H]2CC[C@H](NC(=O)c3cncc(C(=O)N[C@H]4CC[C@H](NC(=O)c5cc(C(=O)NCCN)c(OC)cc5OC)CC4)c3)CC2)cc1C(=O)NCCN [Compound 400] ? 1300 µg/mL

Which EC50 at 1 h value is on record for COc1ccc(NC(=O)[C@H](CCCCN)NC(=O)c2cc(NC(=O)[C@H](CCCCN)NC(=O)c3cc(NC(=O)[C@H](CCCCN)NC(=O)c4cc(NC(=O)[C@H](CCCCN)NC(=O)c5c[nH]c6ccccc56)ccc4OC)ccc3OC)ccc2OC)cc1C(N)=O [Compound 349] ? 236 µg/mL

Which EC50 at 1 h value is on record for COc1cc(OC)c(C(=O)Nc2ccc(NC(=O)c3ccc(OCCCCCN)cc3OCCCCCN)cc2)cc1C(=O)Nc1ccc(NC(=O)c2ccc(OCCCCCN)cc2OCCCCCN)cc1 [Compound 411] ? 590 µg/mL
